IC50, JAK2 (Homo sapiens (Human), UniProt O60674): measured values

>  <Given smiles>
CCN1CCN(Cc2ccc(NC(=O)c3ccc(C)c(-c4ccc5nc(NC(=O)C6CC6)cn5n4)c3)cc2C(F)(F)F)CC1

>  <Target of assay>
JAK2 (Homo sapiens (Human), UniProt O60674)
Sequence (O60674 whole entry): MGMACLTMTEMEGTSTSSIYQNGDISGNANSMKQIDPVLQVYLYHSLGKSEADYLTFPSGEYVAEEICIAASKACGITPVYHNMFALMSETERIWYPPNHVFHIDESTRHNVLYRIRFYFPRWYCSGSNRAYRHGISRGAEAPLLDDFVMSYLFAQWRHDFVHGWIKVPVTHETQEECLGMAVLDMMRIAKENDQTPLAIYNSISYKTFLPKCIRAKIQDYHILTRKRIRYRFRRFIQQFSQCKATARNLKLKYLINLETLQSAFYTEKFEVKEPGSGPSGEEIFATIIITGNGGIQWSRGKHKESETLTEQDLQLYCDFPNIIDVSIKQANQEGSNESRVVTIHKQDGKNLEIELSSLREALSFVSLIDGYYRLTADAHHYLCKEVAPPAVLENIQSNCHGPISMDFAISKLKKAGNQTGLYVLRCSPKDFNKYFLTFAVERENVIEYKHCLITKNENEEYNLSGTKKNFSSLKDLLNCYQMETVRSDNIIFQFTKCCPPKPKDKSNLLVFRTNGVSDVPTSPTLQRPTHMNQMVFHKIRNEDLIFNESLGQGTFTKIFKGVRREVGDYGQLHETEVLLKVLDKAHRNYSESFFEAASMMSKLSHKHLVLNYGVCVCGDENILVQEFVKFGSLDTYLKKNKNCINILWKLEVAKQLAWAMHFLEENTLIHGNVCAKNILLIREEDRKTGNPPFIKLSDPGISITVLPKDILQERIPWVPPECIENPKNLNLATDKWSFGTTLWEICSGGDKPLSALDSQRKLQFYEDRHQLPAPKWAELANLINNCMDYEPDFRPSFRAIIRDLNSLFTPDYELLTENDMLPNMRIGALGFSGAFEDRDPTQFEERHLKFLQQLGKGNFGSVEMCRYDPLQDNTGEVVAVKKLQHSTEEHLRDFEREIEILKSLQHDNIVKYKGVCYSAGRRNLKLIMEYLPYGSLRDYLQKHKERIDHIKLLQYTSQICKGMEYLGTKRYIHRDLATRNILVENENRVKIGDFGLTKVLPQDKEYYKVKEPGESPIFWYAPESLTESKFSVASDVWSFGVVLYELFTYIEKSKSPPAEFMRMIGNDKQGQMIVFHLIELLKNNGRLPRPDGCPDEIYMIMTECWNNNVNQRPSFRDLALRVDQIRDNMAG

>  <IC50 / nM>
1100

$$$$
>  <Given smiles>
CCN1CCN(Cc2cc(C(=O)Nc3ccc(C)c(-c4ccc5nc(NC(=O)C6CC6)cn5c4)c3)cc(C(F)(F)F)c2)CC1

>  <Target of assay>
JAK2 (Homo sapiens (Human), UniProt O60674)

>  <IC50 / nM>
824

$$$$
>  <Given smiles>
CCN1CCN(Cc2cc(NC(=O)c3ccc(C)c(-c4cnc5nc(NC(=O)C6CC6)cn5c4)c3)cc(C(F)(F)F)c2)CC1

>  <Target of assay>
JAK2 (Homo sapiens (Human), UniProt O60674)

>  <IC50 / nM>
9510

$$$$
>  <Given smiles>
CCN1CCN(Cc2cc(NC(=O)c3ccc(C)c(-c4ccc5nc(NC(=O)C6CC6)cn5n4)c3)cc(C(F)(F)F)c2)CC1

>  <Target of assay>
JAK2 (Homo sapiens (Human), UniProt O60674)

>  <IC50 / nM>
190

$$$$
>  <Given smiles>
CCN1CCN(Cc2cc(NC(=O)c3ccc(C)c(-c4ccc5nc(NC(=O)C6CC6)cn5c4)c3)cc(C(F)(F)F)c2)CC1

>  <Target of assay>
JAK2 (Homo sapiens (Human), UniProt O60674)

>  <IC50 / nM>
284

$$$$
>  <Given smiles>
CC(=O)N1CCN(Cc2cc(NC(=O)c3ccc(C)c(-c4ccc5nc(NC(=O)C6CC6)cn5n4)c3)cc(C(F)(F)F)c2)CC1

>  <Target of assay>
JAK2 (Homo sapiens (Human), UniProt O60674)

>  <IC50 / nM>
1350

$$$$
>  <Given smiles>
CCN1CCN(Cc2cc(NC(=O)c3ccc(C)c(-c4ccn5nc(NC(=O)C6CC6)nc5c4)c3)cc(C(F)(F)F)c2)CC1

>  <Target of assay>
JAK2 (Homo sapiens (Human), UniProt O60674)

>  <IC50 / nM>
981

$$$$
>  <Given smiles>
CCN1CCN(Cc2cc(NC(=O)c3cnc(C)c(-c4ccc5nc(NC(=O)C6CC6)cn5n4)c3)cc(C(F)(F)F)c2)CC1

>  <Target of assay>
JAK2 (Homo sapiens (Human), UniProt O60674)

>  <IC50 / nM>
486

$$$$
>  <Given smiles>
CCS(=O)(=O)N1CCN(Cc2cc(NC(=O)c3ccc(C)c(-c4ccc5nc(NC(=O)C6CC6)cn5n4)c3)cc(C(F)(F)F)c2)CC1

>  <Target of assay>
JAK2 (Homo sapiens (Human), UniProt O60674)

>  <IC50 / nM>
2620

$$$$
>  <Given smiles>
Cc1ccc(C(=O)Nc2cc(CN3CCNCC3)cc(C(F)(F)F)c2)cc1-c1ccc2nc(NC(=O)C3CC3)cn2n1

>  <Target of assay>
JAK2 (Homo sapiens (Human), UniProt O60674)

>  <IC50 / nM>
301

$$$$
